// provenance: the supplement of paper PMC10567573

B1: OAS1 (parent)
chain: LTVYAWERGSMKTHFNTAQGFRTV

- Variants of: B1
- TEST_SUMMARY: protein stability index of a GFP-peptide fusion (GPS, HEK-293T) (PSI 1-6); higher = more stable;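 also: lentivirally expressed fusions sorted by FACS into six bins by GFP to DsRed ratio, PSI derived from sequencing read proportions per bin multiplied by bin number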
- EXPERIMENTAL_PARAMETERS: c terminus: a fixed tail appended
Item-by-item account of protein stability index
In your answer, state the number alone without any accompanying words.

>>> numeric_result("Q19N")
2.92
>>> numeric_result("T23K")
2.39
>>> numeric_result("S10R")
2.08
>>> numeric_result("A5L")
2.8
>>> numeric_result("E7S")
2.76

Reported protein stability index of V3H : 2.36

The value of protein stability index measured for the variant H14R turned out to be 3.04

The variant listed as R8G shows protein stability index equal to 2.33

Form: variant = T2K ; protein stability index = 2.87

Entry under test: M11C . Its protein stability index was 3.65

// W6H : protein stability index value = 2.2
